Tested on: Panc1-G12D
protocol: Viability assay (CellTiterBlue, 72 hr) Panc1
Format: cell-based
run conditions: Homo sapiens, PANC-1, GI50, CellTiterBlue, Panc1 cells (K-Ras G12D), read-out: 72 hr Cell Viability Panc1 (G12D)
pIC50: −log10 of the molar value.
readout kind: pIC50

Cc1ncc(C(=O)Nc2nc(-c3ccc4c(c3)CCC(=O)N4)cs2)c(C)n1 ... 5.40

P = Cn1nccc1-c1csc(C(=O)Nc2nc(-c3ccc4c(c3)CCC(=O)N4)cs2)c1
Q = O=C1CCc2cc(-c3csc(NC(=O)c4ccc(Cl)s4)n3)ccc2N1
Compare pIC50: is it lower for P or for Q ? Mark your selection by writing its label.
Q
(Q: 4.57, P: 5.40)

---

Tested on: HCC827 (K-Ras wild type cell line)
protocol: Viability assay (CellTiterBlue, 72 hr) HCC827
Assay type: cell-based
run conditions: Homo sapiens, GI50, CellTiterBlue, HCC827 K-Ras wild-type
readout kind: IC50

Use the examples below as a reference point.
Cc1nn(C)c(C)c1C(=O)Nc1nc(-c2ccc3c(c2)CCC(=O)N3Cc2cccnc2)cs1 ... > 25 µM
Cc1nc(C)c(C(=O)Nc2nc(-c3ccc4c(c3)CCC(=O)N4Cc3ccc4c(c3)OCO4)cs2)o1 ... > 25 µM
CCn1nc(C2CC2)cc1C(=O)Nc1nc(-c2ccc3c(c2)CCC(=O)N3)cs1 ... > 25 µM

What measured IC50 goes with COCCCN1C(=O)CCc2cc(-c3csc(NC(=O)c4oc(C)nc4C)n3)ccc21 ?
4 µM

---

# IC50 annotations
target or system: K-Ras G12D (Homo sapiens, UniProt P01116, G12D)
Construct: expressed in transfected cells; host or cells: 293H cells
Sequence (P01116 whole entry G12D): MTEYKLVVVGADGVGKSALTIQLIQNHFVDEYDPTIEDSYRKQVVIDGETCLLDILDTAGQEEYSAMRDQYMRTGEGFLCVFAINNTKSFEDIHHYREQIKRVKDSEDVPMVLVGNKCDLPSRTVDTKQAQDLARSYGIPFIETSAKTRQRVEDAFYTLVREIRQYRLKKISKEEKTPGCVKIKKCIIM
protocol: G-LISA Ras activation, 293H cells transfected with G12D mutant
Format: cell-based
run conditions: compound 1 hour
Quick note: give the figure in µM, leave out the unit.

Use the examples below as a reference point.
COCCN1C(=O)CCc2cc(-c3csc(NC(=O)c4oc(C(C)C)nc4C)n3)ccc21 ... 2.5
Cc1nc(C2CC2)oc1C(=O)Nc1nc(-c2ccc3c(c2)CCC(=O)N3)cs1 ... 7.3
Cc1nn(C(C)C)c(C)c1C(=O)Nc1nc(-c2ccc3c(c2)CCC(=O)N3)cs1 ... 5.2
COCCN1C(=O)CCc2cc(-c3csc(NC(=O)c4oc(C)nc4C)n3)ccc21 ... 5.1
Cc1nc(C2CCCCC2)oc1C(=O)Nc1nc(-c2ccc3c(c2)CCC(=O)N3Cc2cccnc2)cs1 ... 9.3
CC(C)c1cc(C(=O)Nc2nc(-c3ccc4c(c3)CCC(=O)N4)cs2)n(C)n1 ... 4

What measured IC50 goes with Cc1nn(-c2ccc(F)cc2)c(C)c1C(=O)Nc1nc(-c2ccc3c(c2)CCC(=O)N3)cs1 ?
7.9

What would you report for Cc1nc(C)c(C(=O)Nc2nc(-c3ccc4c(c3)CCC(=O)N4Cc3ccc4c(c3)OCO4)cs2)o1 ?
22.4

What would you report for Cc1nc(C)c(C(=O)Nc2nc(-c3ccc4c(c3)CCC(=O)N4CC3CCCOC3)cs2)o1 (stereo not shown) ?
4.5

What would you report for COCCN1C(=O)CCc2cc(-c3csc(NC(=O)c4c(C)nn(C(C)C)c4C)n3)ccc21 ?
4.3

What would you report for CCn1nc(C)c(C(=O)Nc2nc(-c3ccc4c(c3)CCC(=O)N4)cs2)c1C ?
4.3

What would you report for CCc1nc(C)c(C(=O)Nc2nc(-c3ccc4c(c3)CCC(=O)N4Cc3ccccn3)cs2)o1 ?
5.6

What would you report for Cc1nc(C(C)C)oc1C(=O)Nc1nc(-c2ccc3c(c2)CCC(=O)N3Cc2cccnc2)cs1 ?
8.4

What would you report for Cc1nc(C)c(C(=O)Nc2nc(-c3ccc4c(c3)CCC(=O)N4C3CCCC3)cs2)o1 ?
8.1

What would you report for CCCn1nc(C)c(C(=O)Nc2nc(-c3ccc4c(c3)CCC(=O)N4)cs2)c1C ?
4
